Test system: UACC-62 melanoma
Assay: NCI tumour cell line growth inhibition, 48 h
EXPERIMENTAL READOUT: GI50

compound="Nc1nccc2c1ncn2C1C=C(CO)C(O)C1O (stereo not given)" experimental_readout=GI50 recorded_value="6.88 µM"
compound=Cc1cc(N2CCN(C)CC2)nc(N(CCNc2ccnc3cc(Cl)ccc23)Cc2ccco2)n1 experimental_readout=GI50 recorded_value="2.02 µM"
compound=Cc1ccc(-c2c3c(N)nc(-c4ccncc4)nc3nc3c2c(C)nn3-c2ccccc2)cc1 experimental_readout=GI50 recorded_value="13.8 µM"
compound=O=c1c(-c2ccc3c(c2)OCO3)coc2c(CO)c(O)ccc12 experimental_readout=GI50 recorded_value="1.66 µM"
compound=COc1ccc(Oc2nc(Nc3ccc(N4CCOCC4)cc3)ncc2NC(=O)Nc2cc(OC)cc(OC)c2)cc1 experimental_readout=GI50 recorded_value="1.99 µM"
compound=Cc1ccn2c(-c3csc(Nc4cccc(O)c4)n3)c(C)nc2c1 experimental_readout=GI50 recorded_value="0.712 µM"
compound=Cc1ccc2c(n1)C(=O)C(Cl)=C(Nc1ccc(N3CCN(C)CC3)cc1)C2=O experimental_readout=GI50 recorded_value="1.71 µM"
compound=O=C1c2ccccc2-c2c1c1c(O)cccc1n2CCCc1ccccc1 experimental_readout=GI50 recorded_value="22.7 µM"
compound=Cc1cc(NS(=O)(=O)c2ccc(NC(=O)COc3ccc(-c4cc5ccccc5[nH]4)cc3)cc2)no1 experimental_readout=GI50 recorded_value="1.53 µM"
compound="Cc1cc(C(=O)N2CCN(C)CC2)c2c(=O)n(-c3ccccc3)c(=O)n(CC(O)CN3CCN(c4ncccn4)CC3)c2n1 (stereo not given)" experimental_readout=GI50 recorded_value="> 100 µM"

* * *

System: MALME-3M melanoma
Assay: NCI tumour cell line growth inhibition, 48 h
Entries and their measured TGI follow.
EXPERIMENTAL READOUT: TGI

molecule=COc1ccc(/C=C/c2ccnc3ccccc23)cc1 experimental_readout=TGI recorded_value="30.6 µM"
molecule=COC(=N)c1ncn(Cc2ccccc2)c1N experimental_readout=TGI recorded_value="> 100 µM"
molecule="C[As](C)SCC(NC(=O)CCC(N)C(=O)O)C(=O)NCC(=O)O.Cl.c1ccncc1 (stereo unspecified)" experimental_readout=TGI recorded_value="0.119 µM"
molecule=c1ccc(N=C2C(=Nc3ccccc3)N(C3CCCCC3)C(=NC3CCCCC3)N2c2ccccc2)cc1 experimental_readout=TGI recorded_value="> 100 µM"
molecule=O=C(Nc1ccc2cc3ccc(NC(=O)N4CCCCCC4)cc3nc2c1)N1CCCCCC1 experimental_readout=TGI recorded_value="2.53 µM"
molecule=O=C1NC(=O)/C(=C/c2ccc(S(=O)(=O)N/N=C/c3ccccc3)cc2)N1 experimental_readout=TGI recorded_value="> 100 µM"
molecule=CC[C@@]1(O)C(=O)OCc2c1cc1n(c2=O)Cc2cc3c(Cl)c4c(cc3nc2-1)OCO4 experimental_readout=TGI recorded_value="31.4 µM"
molecule=OCCSCc1cc(Cl)cc(Cl)c1O experimental_readout=TGI recorded_value="> 100 µM"
molecule=Cc1cc2oc(=O)c(Cl)c(Cl)c2c(C)c1Cl experimental_readout=TGI recorded_value="23.7 µM"
molecule=COC(=O)CSc1n[nH]c(-c2ccccc2)n1 experimental_readout=TGI recorded_value="> 100 µM"
molecule=O=C(Cc1nc2ccc(C(=O)c3ccccc3)cc2[nH]c1=O)C(=O)Nc1ccc(C(F)(F)F)cc1[N+](=O)[O-] experimental_readout=TGI recorded_value="> 100 µM"
molecule=Oc1[nH]c2ccc(Cl)cc2c1/C=c1/ccc2c(c1)N=C(c1ccc(C(F)(F)F)cc1)N=2 experimental_readout=TGI recorded_value="6.57 µM"
molecule="COc1ccc(N2C(=O)C(C#N)=C(SC)C(C#N)C2=O)cc1 (stereo unspecified)" experimental_readout=TGI recorded_value="> 100 µM"
molecule=Cc1cc(NS(=O)(=O)c2ccc(NC(=O)COc3ccc(-c4cc5ccccc5[nH]4)cc3)cc2)no1 experimental_readout=TGI recorded_value="3.85 µM"
molecule=CC(C)(C)c1cc(Oc2ccc(C#N)c(C#N)c2)cc(C(C)(C)C)c1 experimental_readout=TGI recorded_value="> 100 µM"
molecule=O=S(=O)(c1ccccc1)n1cnc(CCc2ccccc2)n1 experimental_readout=TGI recorded_value="> 100 µM"
molecule=COc1ccc(/C=N/NS(=O)(=O)c2ccc(/C=C3\NC(=O)N(C)C3=O)cc2)cc1 experimental_readout=TGI recorded_value="> 100 µM"
molecule=C[C@]12CC[C@H]3[C@@H](CC=C4C[C@@H](O)CC[C@@]43C)[C@@H]1C[C@H](N1CCOCC1)[C@@H]2O experimental_readout=TGI recorded_value="> 100 µM"
molecule=OC1=CN=C(C2CC2)Oc2ccccc21 experimental_readout=TGI recorded_value="> 100 µM"
molecule=C[N+](C)(C)CC(=O)N/N=C/c1oc(-c2cccc([N+](=O)[O-])c2)c(-c2cccc([N+](=O)[O-])c2)c1[N+](=O)[O-] experimental_readout=TGI recorded_value="> 100 µM"
molecule=CCCC1=NC(C(F)(F)F)(C(F)(F)F)N=C(N2CCOCC2)O1 experimental_readout=TGI recorded_value="> 100 µM"
molecule=O=C(O)c1ccccc1-c1ccccc1C(=O)Nc1ccc2c(c1)Cc1ccccc1-2 experimental_readout=TGI recorded_value="> 100 µM"
molecule=Cc1cc(N2CCN(C)CC2)nc(N(CCNc2ccnc3cc(Cl)ccc23)Cc2ccco2)n1 experimental_readout=TGI recorded_value="3.71 µM"
molecule=COc1ccccc1/C=C1\N=C(C)OC1=O experimental_readout=TGI recorded_value="> 100 µM"
molecule=Cc1nn2c(=O)n(-c3cccc(-n4nnc5c(-c6ccccc6)c(C)nn5c4=O)c3C)nnc2c1-c1ccccc1 experimental_readout=TGI recorded_value="56 µM"
molecule=CCOC(=O)c1c(C(F)(F)F)n([O-])c2ccc(Cl)cc2[n+]1=O experimental_readout=TGI recorded_value="3.42 µM"

* * *

System: A549 NSCLC
Experiment: NCI tumour cell line growth inhibition, 48 h
EXPERIMENTAL READOUT: TGI

molecule=CC(=O)Nc1cc(C(c2ccccc2)c2ccccc2)cc(C(c2ccccc2)c2ccccc2)c1C experimental_readout=TGI recorded_value="> 100 µM"
molecule="O=C(O)CC1C(=O)OC2C3COC(=O)c4cc(O)c(O)c(O)c4-c4c(cc(O)c(O)c4O)C(=O)OC2C(OC(=O)c2cc(O)c(O)c4c2C1C(O)C(=O)O4)C(OC(=O)c1cc(O)c(O)c(O)c1)O3 (configuration not stated)" experimental_readout=TGI recorded_value="> 100 µM"
molecule=N=C1/C(=C/c2ccccc2)C(=O)N=C2SC=NN12 experimental_readout=TGI recorded_value="> 100 µM"
molecule="O=C1CC(NC2CC(=O)c3c(Br)sc(Br)c32)c2c(Br)sc(Br)c21 (configuration not stated)" experimental_readout=TGI recorded_value="38.9 µM"
molecule="C=CCC1(O)C(=O)OC2C(O)COC21O (configuration not stated)" experimental_readout=TGI recorded_value="> 100 µM"
molecule=CC(C)[Si](Oc1cc2c3c(ccc2c(O)c1[C@@H](C)CO[Si](C)(C)C(C)(C)C)C(C)(C)CCC3)(C(C)C)C(C)C experimental_readout=TGI recorded_value="> 100 µM"
molecule="CCOC(=O)CCC(NC(=O)c1ccc(OCc2ccc3nc(OC)c(OC)nc3c2)cc1)C(=O)OCC (configuration not stated)" experimental_readout=TGI recorded_value="> 100 µM"
molecule=O=c1c(-c2ccc3c(c2)OCO3)coc2c(CO)c(O)ccc12 experimental_readout=TGI recorded_value="30.9 µM"
molecule="CC(=O)NC1CCCN(O)C(=O)/C=C(/C)CCOC(=O)C(NC(C)=O)CCCN(O)C(=O)/C=C(/C)CCOC(=O)C(NC(C)=O)CCCN(O)C(=O)/C=C(/C)CCOC1=O.[Fe] (configuration not stated)" experimental_readout=TGI recorded_value="> 100 µM"
molecule=O=[N+]([O-])c1ccc(N/N=C/c2ccccc2O)nc1 experimental_readout=TGI recorded_value="> 100 µM"
molecule="CC1(C)CC(=O)C(CC2C(=O)c3ccccc3C2=O)C(=O)C1C(=O)C(=O)Nc1cccc2ccc(O)cc12 (configuration not stated)" experimental_readout=TGI recorded_value="> 100 µM"
molecule="CC(C)(C)C1CCC(CI)(N=[N+]=[N-])CC1 (configuration not stated)" experimental_readout=TGI recorded_value="> 100 µM"
molecule=C[N+](C)(C)CC(=O)N/N=C/c1oc(-c2cccc([N+](=O)[O-])c2)c(-c2cccc([N+](=O)[O-])c2)c1[N+](=O)[O-] experimental_readout=TGI recorded_value="> 100 µM"
molecule="O=C(O)c1cccc(S(=O)(=O)NN2C(=O)CSC2c2ccccc2Cl)c1 (configuration not stated)" experimental_readout=TGI recorded_value="> 100 µM"
molecule=COc1ccc2oc(-c3cc4cc(OC)ccc4o3)cc2c1 experimental_readout=TGI recorded_value="> 100 µM"
molecule=CC(C)(C)OC(=O)N(CCCCNC(=O)c1ccccc1)CCCNC(=O)c1ccccc1 experimental_readout=TGI recorded_value="> 100 µM"
molecule=COc1ccc(/C=N/NS(=O)(=O)c2ccc(/C=C3\NC(=O)N(C)C3=O)cc2)cc1 experimental_readout=TGI recorded_value="> 100 µM"
molecule=CC1(C)C(=O)CCC(=O)C(C)(C)C2=CC=C(O2)C(C)(C)C(=O)CCC(=O)C(C)(C)C2=CC=C1O2 experimental_readout=TGI recorded_value="> 100 µM"
molecule=O=NNc1ccc(Sc2ccc3ccccc3c2)cn1 experimental_readout=TGI recorded_value="> 100 µM"
molecule=Cc1cc(Br)c2nsnc2c1[N+](=O)[O-] experimental_readout=TGI recorded_value="17.3 µM"
molecule=CCc1ccc(Oc2nccc(-c3c(-c4ccc(F)cc4)ncn3C3CCNCC3)n2)cc1 experimental_readout=TGI recorded_value="13.3 µM"
molecule=O=CN1CCN(C(=O)c2ccc(Cl)cc2)C1=S experimental_readout=TGI recorded_value="28 µM"
molecule=O=C(O)/C(=C/c1ccccc1[N+](=O)[O-])c1cccs1 experimental_readout=TGI recorded_value="> 100 µM"
molecule="CC(=O)c1c2c(cc3c1CC1(C3)Cc3ccc4c(c3C1=O)CCC4)CCC2 (configuration not stated)" experimental_readout=TGI recorded_value="> 100 µM"
molecule=O=C(Nc1ccc(Cl)cc1Cl)c1cc2nc3ccccc3c(=O)n2c2ccccc12 experimental_readout=TGI recorded_value="> 10 µM"
molecule=COc1cc(-c2ccccc2)c(OC)cc1CCl experimental_readout=TGI recorded_value="> 100 µM"
molecule=O=C(OCC(Cl)(Cl)Cl)N1CC[C@@H](C2CCCCC2)C1 experimental_readout=TGI recorded_value="> 100 µM"
molecule=CCCC(=O)n1[nH]c(=O)n(C(C)(C)C)c1=O experimental_readout=TGI recorded_value="> 100 µM"
molecule=CCOC(=O)c1c(SC)nc(-c2ccc(Cl)cc2)sc1=N experimental_readout=TGI recorded_value="> 100 µM"
molecule=c1csc(-c2ccc(-c3ccsc3)s2)c1 experimental_readout=TGI recorded_value="> 100 µM"
molecule=CN1C(=O)CN=C(c2ccccc2F)c2cc(N=C=S)ccc21 experimental_readout=TGI recorded_value="> 100 µM"
molecule="CC(N)CN.CC(N)CN.[Cl-].[O]=[Os+2]=[O] (configuration not stated)" experimental_readout=TGI recorded_value="> 100 µM"
